System: Escherichia coli (NCTC10418)
Type: cell-based
Positions of bridges follow the written chain, without caps; N, C: chain ends. Residues, ends and D or L forms follow the SMILES beside them.
experimental readout: MBC E. coli

In: Which measured MBC E. coli value corresponds to CC[C@H](C)[C@@H]1NC(=O)[C@H](C)NC(=O)[C@@H](NC(=O)[C@H](CCCCN)NC(=O)[C@H](C)NC(=O)[C@H](C)NC(=O)[C@H](CC(C)C)NC(=O)CNC(=O)[C@H](C)NC(=O)[C@@H](NC(=O)[C@H](CC(C)C)NC(=O)[C@@H]2CCCN2C(=O)[C@H](CC(C)C)NC(=O)[C@@H](N)Cc2ccccc2)[C@@H](C)CC)CSSC[C@@H](C(=O)O)NC(=O)[C@H](CCCCN)NC(=O)[C@H](CCCCN)NC(=O)[C@H]([C@@H](C)O)NC1=O [Peptide B1A1] (H-FLPLIAGLAAKCAITKKC-OH; disulfide 12-18) ?
Out: > 512 µM

Data origin: paper PMC7464788
